molecular target: EGFR L858R/T790M/C797S (Homo sapiens, UniProt P00533, C797S/L858R/T790M); test: Biochemical EGFR kinase assay (Lance Ultra TR-FRET), triple mutant L858R/T790M/C797S; details: Km ATP; read-out: IC50 L858R/T790M/C797S, Km ATP
Sequence (P00533 25-1210 T790M/C797S/L858R): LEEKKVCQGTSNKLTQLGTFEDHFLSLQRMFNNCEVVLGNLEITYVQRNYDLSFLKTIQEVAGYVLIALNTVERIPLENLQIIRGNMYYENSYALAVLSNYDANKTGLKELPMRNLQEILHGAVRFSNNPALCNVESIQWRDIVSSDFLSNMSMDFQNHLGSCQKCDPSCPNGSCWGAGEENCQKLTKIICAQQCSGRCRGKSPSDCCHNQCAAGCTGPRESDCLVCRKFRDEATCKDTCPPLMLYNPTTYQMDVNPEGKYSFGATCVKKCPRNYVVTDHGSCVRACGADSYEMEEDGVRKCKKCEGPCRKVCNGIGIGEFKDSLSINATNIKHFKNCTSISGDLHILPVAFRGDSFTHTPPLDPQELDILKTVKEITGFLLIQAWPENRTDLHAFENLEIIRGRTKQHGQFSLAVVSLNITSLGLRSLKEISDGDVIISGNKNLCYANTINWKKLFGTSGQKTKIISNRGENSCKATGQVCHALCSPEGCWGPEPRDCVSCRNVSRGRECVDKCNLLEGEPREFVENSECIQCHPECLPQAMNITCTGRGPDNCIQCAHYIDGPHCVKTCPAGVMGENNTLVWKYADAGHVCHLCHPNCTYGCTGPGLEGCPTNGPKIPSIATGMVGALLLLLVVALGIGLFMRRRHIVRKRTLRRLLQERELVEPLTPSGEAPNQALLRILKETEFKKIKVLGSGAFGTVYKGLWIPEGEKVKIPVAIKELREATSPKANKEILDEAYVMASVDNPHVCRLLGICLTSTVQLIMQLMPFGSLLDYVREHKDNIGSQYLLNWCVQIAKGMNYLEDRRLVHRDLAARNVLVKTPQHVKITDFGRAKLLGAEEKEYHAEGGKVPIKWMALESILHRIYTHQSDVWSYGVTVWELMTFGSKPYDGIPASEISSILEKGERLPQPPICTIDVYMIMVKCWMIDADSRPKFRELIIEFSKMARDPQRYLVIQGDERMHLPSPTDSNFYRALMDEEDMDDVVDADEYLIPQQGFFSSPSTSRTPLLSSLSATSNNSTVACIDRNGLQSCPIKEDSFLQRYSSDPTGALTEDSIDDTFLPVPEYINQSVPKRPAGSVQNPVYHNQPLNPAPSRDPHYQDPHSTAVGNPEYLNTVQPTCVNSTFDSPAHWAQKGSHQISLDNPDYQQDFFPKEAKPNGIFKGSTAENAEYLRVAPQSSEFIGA
experimental_readout: IC50 (nM)

COCn1ccc(-c2cnc(Nc3ccnc(-c4cnn(S(=O)(=O)C5CC5)c4)c3)nc2N[C@H]2CC[C@@](C)(O)CC2)n1 [Example 358] : 0.3

[P] Cc1nn(CC(F)(F)F)cc1-c1nccc(Nc2cc(N[C@H]3CC[C@@H](CCO)CC3)c(-c3cc(C(F)(F)F)n(C)n3)cn2)n1 [Example 334]
[Q] OCC[C@H]1CC[C@@H](Nc2cc(Nc3ccnc(-c4cnn(CC(F)F)c4)n3)ncc2-c2ccn(CC(F)(F)F)n2)CC1 [Example 338]
[R] CC1(O)CCC(Nc2cc(Nc3ccnc(N4CCC(O)C(F)(F)C4)n3)ncc2-c2ccn(C(F)F)n2)CC1 (centres unmarked) [Example 348]
Please order the records by their reported IC50, lowest number first. Hello, could you send the labels back in the order asked? Thank you.
R, Q, P

----------
target: EGFR L858R/C797S (Homo sapiens, UniProt P00533, C797S/L858R); test: Biochemical EGFR kinase assay (Lance Ultra TR-FRET), double mutant L858R/C797S; conditions: IC50 L858R/C797S (nM) 100 μM ATP, 100 μM ATP
Sequence (P00533 25-1210 C797S/L858R): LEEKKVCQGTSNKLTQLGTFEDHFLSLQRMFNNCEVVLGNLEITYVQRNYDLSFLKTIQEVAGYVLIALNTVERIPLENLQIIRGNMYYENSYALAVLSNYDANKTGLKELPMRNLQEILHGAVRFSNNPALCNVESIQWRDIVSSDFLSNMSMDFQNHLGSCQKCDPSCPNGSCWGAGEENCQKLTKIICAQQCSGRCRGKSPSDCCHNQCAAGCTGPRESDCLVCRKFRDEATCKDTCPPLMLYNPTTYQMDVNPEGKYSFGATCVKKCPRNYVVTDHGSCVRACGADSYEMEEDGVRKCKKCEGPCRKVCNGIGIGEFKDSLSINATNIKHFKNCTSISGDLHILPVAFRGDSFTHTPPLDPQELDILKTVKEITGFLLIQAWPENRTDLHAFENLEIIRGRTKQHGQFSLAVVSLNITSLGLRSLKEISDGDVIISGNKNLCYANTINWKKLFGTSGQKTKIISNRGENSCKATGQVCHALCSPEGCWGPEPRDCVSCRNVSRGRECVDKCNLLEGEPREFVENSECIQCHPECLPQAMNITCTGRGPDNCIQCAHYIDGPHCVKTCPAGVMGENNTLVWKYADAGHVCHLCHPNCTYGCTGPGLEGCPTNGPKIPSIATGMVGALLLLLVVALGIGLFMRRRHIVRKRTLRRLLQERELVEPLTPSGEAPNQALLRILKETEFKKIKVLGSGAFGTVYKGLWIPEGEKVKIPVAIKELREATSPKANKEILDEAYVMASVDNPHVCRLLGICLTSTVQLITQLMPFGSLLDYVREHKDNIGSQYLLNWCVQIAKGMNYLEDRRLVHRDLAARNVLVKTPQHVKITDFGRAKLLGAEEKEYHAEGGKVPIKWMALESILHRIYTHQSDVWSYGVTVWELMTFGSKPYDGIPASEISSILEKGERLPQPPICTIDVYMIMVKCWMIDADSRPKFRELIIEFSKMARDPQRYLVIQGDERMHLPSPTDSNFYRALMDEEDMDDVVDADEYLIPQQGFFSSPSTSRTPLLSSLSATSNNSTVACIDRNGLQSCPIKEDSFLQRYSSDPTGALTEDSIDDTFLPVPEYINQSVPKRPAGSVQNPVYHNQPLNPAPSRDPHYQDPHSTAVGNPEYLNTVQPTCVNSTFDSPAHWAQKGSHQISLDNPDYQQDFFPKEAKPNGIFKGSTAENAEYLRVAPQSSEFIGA
experimental_readout: IC50 (nM)

CN(C)C[C@H]1CC[C@@H](Nc2cc(Nc3ccnc(-c4cnn(S(=O)(=O)C5CC5)c4)n3)ncc2-c2cc(C(C)(C)O)n(C)n2)CC1 : 0.2

[a] CN(C)CCNC1CCC(Nc2cc(Nc3ccnc(-c4cnn(S(=O)(=O)C5CC5)c4)n3)ncc2-c2csc(C(F)(F)F)n2)CC1 (stereo not drawn)
[b] Cn1nc(-c2cnc(Nc3nc(-c4cnn(S(=O)(=O)C5CC5)c4)ncc3F)cc2N[C@H]2CC[C@@](C)(O)CC2)cc1C(F)(F)F
Min IC50? a | b Answer with the label corresponding to your selection.
a
(a: 7.7 nM, b: 378 nM)

----------
target: EGFR L858R/T790M/C797S (Homo sapiens, UniProt P00533, C797S/L858R/T790M); experiment: Biochemical EGFR kinase assay (Lance Ultra TR-FRET), triple mutant L858R/T790M/C797S; settings: IC50 L858R/T790M/C797S (nM) 100 μM ATP, 100 μM ATP
experimental_readout: IC50 (nM)

Example results:
Cn1ccc(-c2cnc(Nc3ccnc(-c4cnn(S(=O)(=O)C5CC5)c4)n3)cc2NC[C@H]2CC[C@](C)(O)CC2)n1 [Example 48] : 0.5
Cn1ccc(-c2cnc(Nc3ccnc(-c4cnn(S(=O)(=O)C5CC5)c4)n3)cc2NC[C@H]2C[C@H](CO)C2)n1 [Example 223] : 0.2
O=S(=O)(C1CC1)n1cc(-c2nccc(Nc3cc(NC[C@H]4C[C@H](CO)C4)c(-c4ccn(C(F)F)n4)cn3)n2)cn1 [Example 189] : 0.2
Cn1nc(-c2cnc(Nc3ccnc(-c4cnn(S(=O)(=O)C5CC5)c4)n3)cc2NC[C@H]2CC[C@@H](O)C2)cc1C(F)(F)F [Example 261] : 1.4
CN(C)C(=O)C[C@H]1CC[C@@H](Nc2cc(Nc3ccnc(-c4cnn(S(=O)(=O)C5CC5)c4)n3)ncc2-c2cc(C(F)(F)F)n(C)n2)CC1 [Example 258] : 2.8
O=S(=O)(C1CC1)n1cc(-c2nccc(Nc3cc(N[C@H]4CC[C@@H](O)CC4)c(-c4cnn(C5CC5)c4)cn3)n2)cn1 [Example 78] : 5.4
CN(CC(F)F)C[C@H]1CC[C@@H](Nc2cc(Nc3ccnc(-c4cnn(S(=O)(=O)C5CC5)c4)n3)ncc2-c2ccn(C(F)F)n2)CC1 [Example 206] : 13.8
CN[C@H]1CC[C@@H](Oc2cc(Nc3ccnc(-c4cnn(S(=O)(=O)C5CC5)c4)n3)ncc2-c2ccn(C(F)F)n2)CC1 [Example 65] : 4.2

[1] CC(C)(O)Cn1cc(-c2nccc(Nc3cc(N[C@H]4CC[C@@](C)(O)CC4)c(-c4ccn(C(F)F)n4)cn3)n2)cn1 [Example 142]
[2] C[C@]1(O)CC[C@@H](Nc2cc(Nc3ccnc(-c4cnn(S(=O)(=O)C5CC5)c4)n3)ncc2-c2nc(C(F)F)cs2)CC1 [Example 122]
Min IC50? 1 | 2 Answer with the label corresponding to your selection.
2

Numbers sourced from patent US12258327B2.
